# tgt: EGFR (Homo sapiens, UniProt P00533)
# Construct: host or cells: A431
# Sequence (P00533 25-1210): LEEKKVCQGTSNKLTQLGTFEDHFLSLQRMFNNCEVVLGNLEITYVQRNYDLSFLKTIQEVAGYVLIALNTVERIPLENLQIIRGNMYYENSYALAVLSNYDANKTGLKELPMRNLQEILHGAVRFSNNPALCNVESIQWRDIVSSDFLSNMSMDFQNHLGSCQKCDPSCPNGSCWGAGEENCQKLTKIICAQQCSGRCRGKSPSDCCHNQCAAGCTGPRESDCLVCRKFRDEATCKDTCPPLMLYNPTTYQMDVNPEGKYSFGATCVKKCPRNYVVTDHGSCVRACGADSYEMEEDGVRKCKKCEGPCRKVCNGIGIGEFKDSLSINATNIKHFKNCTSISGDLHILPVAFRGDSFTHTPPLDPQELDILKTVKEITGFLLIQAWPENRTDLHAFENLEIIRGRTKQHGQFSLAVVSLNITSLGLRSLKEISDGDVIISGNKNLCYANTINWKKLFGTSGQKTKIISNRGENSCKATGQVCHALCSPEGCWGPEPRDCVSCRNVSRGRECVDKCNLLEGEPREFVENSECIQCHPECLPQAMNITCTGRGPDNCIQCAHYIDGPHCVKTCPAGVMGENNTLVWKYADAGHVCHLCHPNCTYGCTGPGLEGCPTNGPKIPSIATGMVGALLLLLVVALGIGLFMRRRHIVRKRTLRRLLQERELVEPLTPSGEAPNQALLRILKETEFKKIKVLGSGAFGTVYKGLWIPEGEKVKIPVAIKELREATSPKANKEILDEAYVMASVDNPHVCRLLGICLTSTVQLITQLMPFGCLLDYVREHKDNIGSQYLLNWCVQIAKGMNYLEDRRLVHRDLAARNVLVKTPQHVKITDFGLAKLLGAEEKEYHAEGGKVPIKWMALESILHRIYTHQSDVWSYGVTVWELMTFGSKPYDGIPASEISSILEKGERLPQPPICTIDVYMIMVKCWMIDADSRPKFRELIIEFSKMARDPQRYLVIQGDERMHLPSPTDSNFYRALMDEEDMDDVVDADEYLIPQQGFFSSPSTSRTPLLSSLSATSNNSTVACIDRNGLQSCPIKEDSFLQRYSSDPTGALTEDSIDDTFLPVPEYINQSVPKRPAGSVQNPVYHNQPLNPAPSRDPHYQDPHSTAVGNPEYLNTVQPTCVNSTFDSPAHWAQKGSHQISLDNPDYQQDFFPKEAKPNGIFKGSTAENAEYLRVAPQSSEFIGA
# experimental_protocol: EGFR in-cell Western (ICW) screening protocol (EGFR inhibition assay);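 further: compound at 125 µM in assay in A431 cells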
# Assay type: cell-based
# Method: The following example describes general EGFR in-cell Western (ICW) screening protocol. Methods are according to Chen et al. (2005) Analytical Biochemistry 338, 136-142 (incorporated herein by reference), except as otherwise noted. Cell Plates: A431 cells (ATCC # CRL-1555) were grown in Dulbecco's Modified Eagle Medium (DMEM; ATCC #30-2002) supplemented with 10% fetal bovine serum, 105 units/ml pen/strep (Invitrogen #15140155) and 2.1 mM L-glutamine (ATCC #30-2214). […]
metric: ICW Screen (ICW Inhibition)

// worked examples, ICW Screen (ICW Inhibition) included
compound | tgt | ICW Screen (ICW Inhibition)
CCN(CC)S(=O)(=O)c1ccc(NC(=S)NC(=O)CC(C)C)cc1 [AD4-12049] | EGFR (Homo sapiens, UniProt P00533) | 36.966
O=C(NC(=S)Nc1ccc(S(=O)(=O)Nc2ccccc2)cc1)C1CCC1 [AD4-12044] | EGFR (Homo sapiens, UniProt P00533) | 34.334
CN(c1ccccc1)S(=O)(=O)c1ccc(NC(=S)NC(=O)/C=C/c2ccccc2)cc1 [AD4-12168] | EGFR (Homo sapiens, UniProt P00533) | 28.819
CN(c1ccccc1)S(=O)(=O)c1ccc(NC(=S)NC(=O)/C=C/c2ccc(F)cc2)cc1 [AD4-12280] | EGFR (Homo sapiens, UniProt P00533) | 41.439
CCc1nnc(NS(=O)(=O)c2ccc(NC(=S)NC(=O)/C=C/c3cccs3)cc2)s1 [AD4-11880] | EGFR (Homo sapiens, UniProt P00533) | 37.604

1 = COc1ccc(OCC(=O)NC(=S)Nc2ccc(S(=O)(=O)Nc3cc(C)cc(C)c3)cc2)cc1 [AD4-11396]
2 = Cc1ccc(NS(=O)(=O)c2ccc(NC(=S)NC(=O)C(C)(C)C)cc2)c(C)c1 [AD4-11968]
Query string: For the two items 1 and 2 , which reports the higher ICW Screen (ICW Inhibition) value? Response format: the label of the selected entry.
Result string: 2

I = Cc1ccccc1OCC(=O)NC(=S)Nc1ccc(S(=O)(=O)NC2CCCCC2)cc1 [AD4-12073]
II = Cc1ccc(NS(=O)(=O)c2ccc(NC(=S)NC(=O)C3CCC3)cc2)cc1C [AD4-10676]
Query string: // task: argmin of ICW Screen (ICW Inhibition) over [ I , II ] Response format: the label of the selected entry.
Result string: I
